These data points were gathered from PubChem BioAssay.

Assay: growth inhibition of DIPG glioma cells, dose response, cell-based, SU-DIPG-IV, MIPE4.0, CellTiter-Glo, qHTS (AID 1347063);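 note: compound exposure lasted 48 hours before the viability readout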
Conditions: SU-DIPG-IV viability, CellTiter-Glo ATP luminescence
Inconclusive results are not listed. Calls of active or inactive are those of the source. No cut-off is given here; in the data, nearly all actives have AC50 up to about 30 µM.
Outcome codes: active, inactive

compound=C[C@@H]1C[C@@H]([C@H](O)CC2CC(=O)NC(=O)C2)C(=O)[C@@H](C)C1 assigned_category=active
compound=O=C(O)c1nn(Cc2ccc(Cl)cc2Cl)c2ccccc12 assigned_category=inactive
compound=CC(C)N[C@@H]1CCn2c(=O)[nH]c3cccc(c32)[C@H]1O assigned_category=active
compound=COC(=O)C1=CCCN(C)C1 assigned_category=inactive
compound="COC[C@H]1OC(=O)c2coc3c2[C@@]1(C)C1=C(C3=O)C2CCC(=O)[C@@]2(C)C[C@H]1OC(C)=O (stereo partly drawn)" assigned_category=active
compound=Cc1cc(SCc2sc(-c3ccc(C(F)(F)F)c(F)c3)nc2C)ccc1OCC(=O)O assigned_category=inactive
compound=CN(C)NC(=O)CCC(=O)O assigned_category=inactive
compound=CC(C)C[C@H](CN)CC(=O)O assigned_category=inactive
compound=COC1=C[C@@H]2[C@@H]3Cc4ccc(OC)c(O)c4[C@]2(CCN3C)CC1=O assigned_category=active
compound=CO/C1=C/C(C)=C\[C@@H](C)[C@@H](O)[C@@H](C)C/C(C)=C\C=C/[C@H](OC)[C@@H]([C@@H](C)[C@@H](O)[C@H](C)[C@@]2(O)C[C@@H](O)[C@H](C)[C@@H](C(C)C)O2)OC1=O assigned_category=active
compound=Cc1cccc(C)c1NC(=O)CN1CCCC1=O assigned_category=inactive
compound=NCC1(CC(=O)O)CCCCC1 assigned_category=inactive
compound=O=c1[nH]c2ccccc2n1C1CCN(Cc2ccc(-c3[nH]c4cc5ncnc5cc4nc3-c3ccccc3)cc2)CC1 assigned_category=active
